Hey, just so you know, these numbers are from PubChem BioAssay AID2060890.

- System: LG0703-F948-PDC complex spheroid viability;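 further: spheroids exposed to agents for 7 days; 100% = DMSO vehicle wells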
- MEASUREMENT_PROTOCOL: Anticancer human tumor LG0703-F948-PDC patient-derived lung adenocarcinoma cell line growth inhibition [RAS]
- CONDITION_NOTES: second compound 10 µM; first compound 10 µM; stronger effect = lower value
We label by threshold. Values of viability, T/C strictly beneath 2% are true (1). Values of 2% and up are false (0).

Before answering, review these 4 worked examples.
COMPOUND	TARGET_DESC	CLASS_ASSIGNMENT
C[C@@H](NC(=O)c1ncnc(N)c1Cl)c1ncc(C(=O)Nc2cc(C(F)(F)F)c(Cl)cn2)s1 + C#Cc1c(F)ccc2cc(O)cc(-c3ncc4c(N5CC6CCC(C5)N6)nc(OCC56CCCN5CC(F)C6)nc4c3F)c12	LG0703-F948-PDC complex spheroid viability	false (0)
CC(Nc1ccc2c(c1)OCCn1cc(N3C(=O)OCC3C(F)F)nc1-2)C(N)=O (stereo not given) + C#Cc1c(F)ccc2cc(O)cc(-c3ncc4c(N5CC6CCC(C5)N6)nc(OCC56CCCN5CC(F)C6)nc4c3F)c12	LG0703-F948-PDC complex spheroid viability	false (0)
Cc1nc(N2CCC3(CC2)COC(C)C3N)c(CO)nc1Sc1ccnc(N)c1Cl (stereo not given) + C#Cc1c(F)ccc2cc(O)cc(-c3ncc4c(N5CC6CCC(C5)N6)nc(OCC56CCCN5CC(F)C6)nc4c3F)c12	LG0703-F948-PDC complex spheroid viability	false (0)
CCC(CC)c1cc(NC2CCC(N)C2)n2nccc2n1 (stereo not given) + C#Cc1c(F)ccc2cc(O)cc(-c3ncc4c(N5CC6CCC(C5)N6)nc(OCC56CCCN5CC(F)C6)nc4c3F)c12	LG0703-F948-PDC complex spheroid viability	true (1)

Let's switch to this compound now.
# strict comparison: is reported viability, T/C < 2%? input = CC(C)NCC(C(=O)N1CCN(c2ncnc3c2C(C)CC3O)CC1)c1ccc(Cl)cc1 (stereo not given) + C#Cc1c(F)ccc2cc(O)cc(-c3ncc4c(N5CC6CCC(C5)N6)nc(OCC56CCCN5CC(F)C6)nc4c3F)c12
true (1)
